# Tested on: wheat
# assay.overview: Test B preemergence/postemergence greenhouse plant response rating 0 to 10
# Type: in vivo, Triticum aestivum
# study.conditions: PREEMERGENCE, Rate 200 g/ha
reported.property: Plant response rating (0 to 10 scale), Wheat
Kindly provide the number alone.

Recorded Plant response rating (0 to 10 scale), Wheat, per entry:
CON=C(C)c1cc(-c2nn3c(c2Cl)CCCC3)c(F)cc1Cl    2
CC(C)(C)C(=O)COc1cc(-c2nn3c(c2Cl)CCCC3)c(Cl)cc1Cl    0
C#CC(C)Oc1cc(-c2nn3c(c2Br)CCCC3)c(F)cc1Cl (centres unmarked)    3
CCOC(=O)c1cc(-c2nn3c(c2Cl)CCCC3)c(F)cc1Cl    4

Now for a further molecule.
Input: Field request: Plant response rating (0 to 10 scale), Wheat | item: Clc1cc(Cl)c(-c2nn3c(c2Cl)CCCC3)cc1OCC1CC1
Output: 2

====

# Tested on: sorghum
# assay.overview: Test C preemergence/postemergence greenhouse plant response rating 0 to 100
# Type: in vivo, Sorghum bicolor
# study.conditions: POSTEMERGENCE, 250 g/ha, 0 to 100 scale
Plant response rating, Sorghum overview
Answer with the value's number alone.

Known Plant response rating, Sorghum results, listed for orientation:
C#CC(C)Oc1cc(-c2nn3c(c2Br)CCCC3)c(F)cc1Cl (stereo not shown) [Compound 66]    60
CCC(C)Oc1cc(-c2nn3c(c2Cl)CCCC3)c(F)cc1Cl (stereo not shown) [Compound 48]    70

Input: For the record C#CC(C)N1C(=O)COc2cc(F)c(-c3nn4c(c3Cl)CCCC4)cc21 (stereo not shown) [Compound 50] , what value of Plant response rating, Sorghum is listed for sorghum?
Output: 50

Input: Then this compound: COC(=O)C(C)Oc1cc(-c2nn3c(c2Cl)CCCC3)c(F)cc1Cl (stereo not shown) [Compound 28]
Output: 100

Input: Same question, CC(C)COc1cc(-c2nn3c(c2Cl)CCCC3)c(F)cc1Cl [Compound 30] this time
Output: 40

Input: Again, but for COc1cc(-c2nn3c(c2Cl)CCCC3)c(F)cc1Cl [Compound 29]
Output: 50

Input: And then C#CCOc1cc(-c2nn3c(c2Br)CCCC3)c(F)cc1Cl [Compound 26] , what is it?
Output: 50

====

# System: soybean
# assay.overview: Test B preemergence/postemergence greenhouse plant response rating 0 to 10
# Assay type: in vivo, Glycine max
# study.conditions: PREEMERGENCE, Rate 50 g/ha; 0 to 10 scale
reported.property: Plant response rating, Soybean
Write the number on its own, no unit after it.

Example molecules with recorded Plant response rating, Soybean:
CCC(C)Oc1cc(-c2nn3c(c2Cl)CCCC3)c(F)cc1Cl (centres unmarked)    0
Clc1ccc(-c2nc3n(c2Br)CCCC3)c(Cl)c1    0

Input: Field request: Plant response rating, Soybean | item: Fc1cc(Cl)c(OCc2ccccc2)cc1-c1nn2c(c1Cl)CCCC2
Output: 0

Input: Same lookup for COCOc1cc(-c2nn3c(c2Cl)CCCC3)c(F)cc1Cl , please.
Output: 0

Input: How about this molecule: CCS(=O)(=O)Oc1cc(-c2nn3c(c2Cl)CCCC3)c(F)cc1Cl
Output: 0

Input: // query: COCOc1cc(-c2nn3c(c2Br)CCCC3)c(F)cc1Cl
Output: 0

Input: Now give it for CON=C(C)c1cc(-c2nn3c(c2Cl)CCCC3)c(F)cc1Cl too.
Output: 0
